Taken from PubChem BioAssay AID602272.

- TEST_TARGET: Glycogen synthase kinase-3 beta (Homo sapiens) (UniProt P49841)
- Sequence (P49841 whole entry, looked up): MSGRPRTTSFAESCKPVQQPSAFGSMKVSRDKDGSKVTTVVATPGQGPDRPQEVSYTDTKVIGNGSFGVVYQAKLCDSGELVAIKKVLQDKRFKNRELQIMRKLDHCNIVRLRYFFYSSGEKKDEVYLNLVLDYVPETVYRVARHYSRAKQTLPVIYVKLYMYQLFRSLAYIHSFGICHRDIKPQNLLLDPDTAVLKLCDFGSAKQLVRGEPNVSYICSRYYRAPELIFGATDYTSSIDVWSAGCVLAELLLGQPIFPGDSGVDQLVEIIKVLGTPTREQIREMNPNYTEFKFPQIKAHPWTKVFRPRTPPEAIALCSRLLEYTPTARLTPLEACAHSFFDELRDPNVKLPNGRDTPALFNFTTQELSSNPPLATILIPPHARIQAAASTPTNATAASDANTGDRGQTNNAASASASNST
- PROCEDURE_TEXT: human GSK3B enzyme activity inhibitors – biochemical, ADP-Glo luminescence, GST-GSK3beta, dry powder, selectivity assay for CDK5 tau phosphorylation inhibitor project, dose response (AID 602272)
- EXPERIMENTAL_SETUP: recombinant GST-GSK3beta, 60 min, at 30 µM (top of the series)
Calls of active or inactive are those of the source.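 Rule for the calls: active = every repeat run shows inhibition with half-maximal dose at most twice the top dose tested; inconclusive = repeat runs disagree on the call; inactive = every repeat run inactive.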
MEASURE_NAME: activity change, negative = inhibition

These solved cases illustrate the format of a correct answer.
[[record]]
smiles_entry = "COc1cc(C(=O)N2CCN(c3ccccc3)CC2)cc(OC)c1OC"
measure_name = "activity change, negative = inhibition"
recorded_result = "inactive"

[[record]]
smiles_entry = "O=C(c1ccccc1Cl)N1CCN(c2ccccn2)CC1"
measure_name = "activity change, negative = inhibition"
recorded_result = "inactive"

[[record]]
smiles_entry = "N#Cc1cccnc1N1CCN(C(=O)c2ccc(Cl)cc2)CC1"
measure_name = "activity change, negative = inhibition"
recorded_result = "inactive"

[[record]]
smiles_entry = "Cc1ccc(N2CCN(C(=O)c3ccc(Cl)cc3)CC2)nc1"
measure_name = "activity change, negative = inhibition"
recorded_result = "inactive"


Query: Specify measured activity change, negative = inhibition for CC(C)C(=O)N1CCN(c2ccccn2)CC1 .
Response: inactive

Query: For the molecule O=C(c1ccc(Cl)cc1)N1CCN(c2ncccc2C(F)(F)F)CC1 , give its reported activity change, negative = inhibition.
Response: inactive

====

- TEST_TARGET: Glycogen synthase kinase-3 beta (Homo sapiens) (UniProt P49841)
- PROCEDURE_TEXT: human GSK3B enzyme activity inhibitors – biochemical, ADP-Glo luminescence, GST-GSK3beta, dry powder, selectivity assay for CDK5 tau phosphorylation inhibitor project, dose response (AID 602272)
- EXPERIMENTAL_SETUP: recombinant GST-GSK3beta, 60 min, at 30 µM (top of the series)
Activity calls are given as the source filed them.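 Rule for the calls: active = every repeat run shows inhibition with half-maximal dose at most twice the top dose tested; inconclusive = repeat runs disagree on the call; inactive = every repeat run inactive.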
MEASURE_NAME: activity change, negative = inhibition

[[record]]
smiles_entry = "COc1cccnc1N1CCN(C(=O)c2ccc(Cl)cc2)CC1"
measure_name = "activity change, negative = inhibition"
recorded_result = "inactive"

[[record]]
smiles_entry = "Cc1ccnc(N2CCN(C(=O)c3ccc(Cl)cc3)CC2)c1"
measure_name = "activity change, negative = inhibition"
recorded_result = "inactive"

[[record]]
smiles_entry = "COCCC(=O)N1CCN(c2ccccn2)CC1"
measure_name = "activity change, negative = inhibition"
recorded_result = "inactive"

[[record]]
smiles_entry = "CCCn1c(NC(=O)c2cccc(S(=O)(=O)N(C)C)c2)nc2ccccc21"
measure_name = "activity change, negative = inhibition"
recorded_result = "inactive"

[[record]]
smiles_entry = "COc1ccnc(N2CCN(C(=O)c3ccc(Cl)cc3)CC2)c1"
measure_name = "activity change, negative = inhibition"
recorded_result = "inactive"

[[record]]
smiles_entry = "c1ccc(N2CCNCC2)nc1"
measure_name = "activity change, negative = inhibition"
recorded_result = "inactive"

[[record]]
smiles_entry = "COc1cccc(C(=O)N2CCN(c3ccccn3)CC2)c1"
measure_name = "activity change, negative = inhibition"
recorded_result = "inactive"

[[record]]
smiles_entry = "CCOc1cc(C(=O)N2CCN(c3ccccn3)CC2)cc(OCC)c1OCC"
measure_name = "activity change, negative = inhibition"
recorded_result = "inactive"

[[record]]
smiles_entry = "O=C(c1ccccc1)N1CCN(c2ccccn2)CC1"
measure_name = "activity change, negative = inhibition"
recorded_result = "inactive"

[[record]]
smiles_entry = "O=C(C1CCCCC1)N1CCN(c2ccccn2)CC1"
measure_name = "activity change, negative = inhibition"
recorded_result = "inactive"


Query: Look up and report activity change, negative = inhibition, with Glycogen synthase kinase-3 beta (Homo sapiens) (UniProt P49841) as system, for O=C(c1ccc(F)cc1)N1CCN(c2ccccn2)CC1
Response: inactive

Query: Under Glycogen synthase kinase-3 beta (Homo sapiens) (UniProt P49841): report activity change, negative = inhibition of O=C(c1ccc(Cl)cc1)N1CCN(c2ccc(C(F)(F)F)cn2)CC1 .
Response: inactive
